Record set of pIC50 for target or system HDAC-4 (Homo sapiens, UniProt P56524).
pIC50: −log10 of the molar value.

Here are 2 molecules together with their reported answers.
INSERT INTO assay_data (compound_smiles, test_value) VALUES
  ('Nc1ccccc1NC(=O)c1ccc(CSc2nc3ccccc3[nH]2)cc1', 4.54),
  ('COc1ccc(NCc2ccc(C(=O)Nc3ccccc3N)cc2)cc1OC', '< 4.30');

Note: attention shifts to another entry.
Which pIC50 is reported with HDAC-4 (Homo sapiens, UniProt P56524) for this entry: COc1ccc(-c2ccnc(NCc3ccc(C(=O)Nc4ccccc4N)cc3)n2)cc1OC ? < 4.30

* * *

Let's look at some compounds and their measured IC50.
System: breast cancer cells MCF-7
Assay: MTT assay, MCF-7
Assay type: cell-based
Stated conditions: Homo sapiens, MCF7; 72 hours
Write it as a number; the unit µM goes unstated.

Known IC50 results, listed for orientation:
INSERT INTO measurements (compound, test_value) VALUES
  ('COc1ccc(NCc2ccc(C(=O)Nc3ccccc3N)cc2)cc1OC [Compound 17]', 3),
  ('Nc1ccccc1NC(=O)c1ccc(CSc2nc3ccccc3[nH]2)cc1 [Compound 16]', 3);

Consider the compound Cc1ccc(S(=O)(=O)Nc2ccc(/C=C/C(=O)Nc3ccccc3N)cc2)cc1 [Compound 5] and give its measured IC50. 6

Need IC50 of COc1ccc(-c2ccnc(NCc3ccc(C(=O)Nc4ccccc4N)cc3)n2)cc1OC [Compound 21] , thanks. 0.7

* * *

Measurement target: UniProt Q8WUI4
Sequence (Q8WUI4 1-952): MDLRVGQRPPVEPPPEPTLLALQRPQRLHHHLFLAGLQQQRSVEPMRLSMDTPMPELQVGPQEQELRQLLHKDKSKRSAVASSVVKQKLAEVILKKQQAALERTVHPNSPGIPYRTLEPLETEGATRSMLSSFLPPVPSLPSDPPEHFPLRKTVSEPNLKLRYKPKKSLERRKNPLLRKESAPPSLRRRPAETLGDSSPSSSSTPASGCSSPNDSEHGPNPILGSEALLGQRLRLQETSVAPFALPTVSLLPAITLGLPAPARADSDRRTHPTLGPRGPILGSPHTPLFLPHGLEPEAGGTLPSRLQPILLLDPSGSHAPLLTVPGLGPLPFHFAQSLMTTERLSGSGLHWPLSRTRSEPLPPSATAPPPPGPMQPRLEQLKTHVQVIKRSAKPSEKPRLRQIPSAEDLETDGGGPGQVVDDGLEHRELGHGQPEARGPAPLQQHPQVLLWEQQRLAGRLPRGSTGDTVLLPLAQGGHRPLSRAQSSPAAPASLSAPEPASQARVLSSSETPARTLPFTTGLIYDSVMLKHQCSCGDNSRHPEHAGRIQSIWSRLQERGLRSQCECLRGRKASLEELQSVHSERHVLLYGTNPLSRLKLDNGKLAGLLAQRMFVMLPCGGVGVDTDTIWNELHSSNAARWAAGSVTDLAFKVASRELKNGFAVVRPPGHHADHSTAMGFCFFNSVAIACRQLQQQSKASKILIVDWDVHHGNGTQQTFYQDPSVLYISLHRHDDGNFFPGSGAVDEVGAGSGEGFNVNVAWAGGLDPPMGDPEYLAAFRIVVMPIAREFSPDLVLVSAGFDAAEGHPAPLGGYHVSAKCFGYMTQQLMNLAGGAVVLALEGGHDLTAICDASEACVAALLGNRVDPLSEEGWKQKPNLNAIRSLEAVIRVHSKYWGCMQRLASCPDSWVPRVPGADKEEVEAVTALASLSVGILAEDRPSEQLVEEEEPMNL
Quantity kind: pIC50
pIC50 is a log-scale quantity: -log10 of the concentration expressed in molar.

Please tell me: pIC50 of Nc1ccccc1NC(=O)c1ccc(CSc2nc3ccccc3[nH]2)cc1 , system UniProt Q8WUI4? 4.42

Reference source for all entries: patent US20040072770A1
